- ASSAY PROTOCOL: anthelmintic activity against nematode growth – whole organism, log2 fold change (AID 1259336);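 also: growth scored by imaging after five days at 20 °C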
- REPORTED CONDITIONS: C. elegans growth, anthelmintic screen; active compounds read low
Active and inactive are the calls of the source. Rule as the data show it: active = log2 fold change growth below about -1.8; inactive = the rest.
# log2 fold change growth listing for each entry below

Some solved entries appear below for comparison.
CC(=O)N(CCN(C(=O)c1ccc(F)cc1)c1ccccc1)c1ccccc1; 0.382 (inactive)
Nc1nccc2ccc(Oc3ccncc3)cc12; 0.145 (inactive)
CC[C@H](Sc1nc2ccccc2o1)C(=O)Nc1nnc(C)s1; 0.272 (inactive)
O=C(c1n[nH]c2c1CCCC2)N1CCN(Cc2ccc3c(c2)OCO3)CC1; 0.387 (inactive)

Moving on to the next compound.
Can you share its log2 fold change growth? I mean this compound: `COc1ccc(C2(C(=O)Nc3ccc(Br)cc3)CCCC2)cc1`
-0.749 (inactive)

The reported measurements were obtained from PubChem BioAssay AID1259336.
